These data points were gathered from ChEMBL document CHEMBL5291721.

The entries below are paired with their reported AC50.
target: UniProt:P35367
Sequence (P35367 whole entry): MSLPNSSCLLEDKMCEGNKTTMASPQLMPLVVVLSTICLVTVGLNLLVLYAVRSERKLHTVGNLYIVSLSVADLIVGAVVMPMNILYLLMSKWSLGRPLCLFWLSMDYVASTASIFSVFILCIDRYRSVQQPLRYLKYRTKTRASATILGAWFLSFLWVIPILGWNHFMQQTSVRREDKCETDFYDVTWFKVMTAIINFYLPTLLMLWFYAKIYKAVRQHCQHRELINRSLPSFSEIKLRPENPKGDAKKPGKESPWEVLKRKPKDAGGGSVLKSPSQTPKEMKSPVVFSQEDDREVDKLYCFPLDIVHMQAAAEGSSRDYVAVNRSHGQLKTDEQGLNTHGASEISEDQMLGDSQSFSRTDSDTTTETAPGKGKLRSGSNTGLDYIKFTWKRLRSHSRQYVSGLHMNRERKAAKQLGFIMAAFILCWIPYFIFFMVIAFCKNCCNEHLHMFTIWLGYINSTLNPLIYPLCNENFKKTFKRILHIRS
Type: functional, cell-based
property: AC50

molecular-string | readout-value
CN(C)CCc1c[nH]c2ccc(CS(=O)(=O)N3CCCC3)cc12 | > 30 µM
O=C(O)c1nn(Cc2ccc(Cl)cc2Cl)c2ccccc12 | > 30 µM
Oc1cc(Cl)ccc1Oc1ccc(Cl)cc1Cl | > 30 µM

====

target: Muscarinic acetylcholine receptor M2 (Homo sapiens, UniProt P08172); further: assay procedure not described here
Sequence (P08172 whole entry): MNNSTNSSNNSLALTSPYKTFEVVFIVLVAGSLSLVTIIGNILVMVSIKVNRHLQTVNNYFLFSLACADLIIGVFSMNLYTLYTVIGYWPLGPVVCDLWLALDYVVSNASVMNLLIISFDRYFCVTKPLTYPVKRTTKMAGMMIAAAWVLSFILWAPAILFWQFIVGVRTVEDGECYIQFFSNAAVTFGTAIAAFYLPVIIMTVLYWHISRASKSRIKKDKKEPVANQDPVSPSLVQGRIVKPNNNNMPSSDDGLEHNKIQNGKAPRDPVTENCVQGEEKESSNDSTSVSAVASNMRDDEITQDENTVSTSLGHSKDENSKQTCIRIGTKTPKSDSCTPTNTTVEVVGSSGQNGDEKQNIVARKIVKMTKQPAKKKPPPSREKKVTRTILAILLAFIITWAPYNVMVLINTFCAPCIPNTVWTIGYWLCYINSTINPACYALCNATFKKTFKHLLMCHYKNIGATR
Assay type: functional, cell-based
Entries and their measured AC50 follow.

compound | AC50
CC(C)(N)Cc1ccccc1 | > 10 µM
N[C@@H](Cc1cc(I)c(Oc2cc(I)c(O)c(I)c2)c(I)c1)C(=O)O | > 30 µM
CN1C(=O)CN=C(c2ccccc2F)c2cc([N+](=O)[O-])ccc21 | > 10 µM
CCN(CC)Cc1nccn1-c1ccc([N+](=O)[O-])cc1C(=O)c1ccccc1Cl | > 30 µM
CO/N=C(\C(=O)N[C@@H]1C(=O)N2C(C(=O)O)=C(CSc3nc(C)c(CC(=O)O)s3)CS[C@H]12)c1csc(N)n1 | > 30 µM
CC(=O)Oc1ccccc1C(=O)O | > 30 µM
Nc1c2c(nc3ccccc13)CCCC2O (configuration not stated) | > 30 µM
CC(C)CN(C[C@@H](O)[C@H](Cc1ccccc1)NC(=O)O[C@H]1CCOC1)S(=O)(=O)c1ccc(N)cc1 | > 10 µM
CC1(C)O[C@@H]2C[C@H]3[C@@H]4CCC5=CC(=O)C=C[C@]5(C)[C@@]4(F)[C@@H](O)C[C@]3(C)[C@]2(C(=O)CO)O1 [TRIAMCINOLONE ACETONIDE] | > 30 µM
CC(=O)[C@@]1(O)CC[C@H]2[C@@H]3C[C@H](C)C4=CC(=O)C=C[C@]4(C)[C@@]3(F)[C@@H](O)C[C@@]21C | > 10 µM
Cc1ccc(S(=O)(=O)NC(=O)N[C@H]2[C@H]3CC[C@@](C)([C@H]2O)C3(C)C)cc1 [GLIBORNURIDE] | > 30 µM
CC1=C(CC(=O)O)c2cc(F)ccc2/C1=C\c1ccc([S+](C)[O-])cc1 (configuration not stated) | > 10 µM
Cc1cn(-c2cc(NC(=O)c3ccc(C)c(Nc4nccc(-c5cnccn5)n4)c3)cc(C(F)(F)F)c2)cn1 | > 30 µM
CN(C)CCOC(c1ccc(Cl)cc1)c1ccccn1 (configuration not stated) | 26 µM
CN1CCCN=C1/C=C/c1cccc(O)c1 | > 30 µM
CCOc1ccccc1OCCN[C@H](C)Cc1ccc(OC)c(S(N)(=O)=O)c1 | > 10 µM
COc1ccc(C(=O)c2ccccc2)c(O)c1 | > 30 µM
